Assay: Clearance in monkey hepatocytes assessed per million cells by HPLC/atmospheric pressure chemical ionization/MS analysis
Type: ADME, cell-based, Macaca mulatta, Hepatocyte
Conditions: rhesus monkey, read-out: CLH
measured property: hepatocyte CLint (µL/min/1e6 cells)

A selection of reference data follows.
smiles string | hepatocyte CLint (µL/min/1e6 cells)
O=S(=O)(CC[C@@H]1OCC[C@@]2(S(=O)(=O)c3ccc(Cl)cc3)c3c(F)ccc(F)c3OC[C@@H]12)[C@H]1CCNC1 | 60.5
O=S(=O)(CC[C@@H]1OCC[C@@]2(S(=O)(=O)c3ccc(Cl)cc3)c3c(F)ccc(F)c3OC[C@@H]12)C[C@@H]1CCCN1 | 26.7

[P] CCNCCS(=O)(=O)CC[C@@H]1OCC[C@@]2(S(=O)(=O)c3ccc(Cl)cc3)c3c(F)ccc(F)c3OC[C@@H]12
[Q] O=S(=O)(CC[C@@H]1OCC[C@@]2(S(=O)(=O)c3ccc(Cl)cc3)c3c(F)ccc(F)c3OC[C@@H]12)C[C@H]1CCCN1
# input Hello, I am sorting some records. Could you say if P or Q has the smaller hepatocyte CLint value? Respond with the label that goes with your answer.
# output Q

###

Assay: Inhibition of gamma-secretase in HEK293 cell membranes expressing human APP Swedish/London double mutant assessed as reduction in amyloid beta 40 formation after 1 hr by electrochemiluminescence based immunoassay
measured property: IC50 (nM)

A selection of reference data follows.
smiles string | unit abbreviation | IC50
O=S(=O)(CC[C@@H]1OCC[C@@]2(S(=O)(=O)c3ccc(Cl)cc3)c3c(F)ccc(F)c3OC[C@@H]12)C1CNC1 | nM | 1.3
O=S(=O)(CC[C@@H]1OCC[C@@]2(S(=O)(=O)c3ccc(Cl)cc3)c3c(F)ccc(F)c3OC[C@@H]12)C[C@H]1CCCN1 | nM | 1

[1] O=S(=O)(CC[C@@H]1OCC[C@@]2(S(=O)(=O)c3ccc(Cl)cc3)c3c(F)ccc(F)c3OC[C@@H]12)CCN1CCCCC1
[2] O=S(=O)(CC[C@@H]1OCC[C@@]2(S(=O)(=O)c3ccc(Cl)cc3)c3c(F)ccc(F)c3OC[C@@H]12)C[C@@H]1CCCN1
[3] O=S(=O)(CC[C@@H]1OCC[C@@]2(S(=O)(=O)c3ccc(Cl)cc3)c3c(F)ccc(F)c3OC[C@@H]12)[C@@H]1CCNC1
# input // ranking: key=IC50, reverse=True Provide the ranking by listing each label in its place in the requested order.
# output 3, 1, 2
(3: 5.1 nM, 1: 1.3 nM, 2: 0.7 nM)

###

Test: Ratio of drug level in brain to plasma in mouse at 6 hrs
Format: ADME, organism-based
Details: brain and plasma, read-out: BPR
measured property: Kp at 6 h

smiles string | numeric value
CCNCCS(=O)(=O)CC[C@@H]1OCC[C@@]2(S(=O)(=O)c3ccc(Cl)cc3)c3c(F)ccc(F)c3OC[C@@H]12 | 0.4
CNCCS(=O)(=O)CC[C@@H]1OCC[C@@]2(S(=O)(=O)c3ccc(Cl)cc3)c3c(F)ccc(F)c3OC[C@@H]12 | 0.4
O=S(=O)(CC[C@@H]1OCC[C@@]2(S(=O)(=O)c3ccc(Cl)cc3)c3c(F)ccc(F)c3OC[C@@H]12)C[C@H]1CCCN1 | 0.4

[P] O=S(=O)(CC[C@@H]1OCC[C@@]2(S(=O)(=O)c3ccc(Cl)cc3)c3c(F)ccc(F)c3OC[C@@H]12)[C@H]1CCNC1
[Q] O=S(=O)(CC[C@@H]1OCC[C@@]2(S(=O)(=O)c3ccc(Cl)cc3)c3c(F)ccc(F)c3OC[C@@H]12)[C@@H]1CCNC1
[R] CNC(C)(C)CCS(=O)(=O)CC[C@@H]1OCC[C@@]2(S(=O)(=O)c3ccc(Cl)cc3)c3c(F)ccc(F)c3OC[C@@H]12
# input // ranking: key=Kp at 6 h, reverse=True Provide the ranking by listing each label in its place in the requested order.
# output Q, R, P
(Q: 2, R: 1, P: 0.3)

The measured values listed here are drawn from ChEMBL document CHEMBL3867482.
